Reported mean fluorescence relative to chimeric antibody values for a set of binders
- TARGET UNDER TEST: T1, mouse CD47 (mouse, UniProt Q61735 19-303)
- T1 construct: whole, on cells; also called CD47 on mouse RBCs; CD47 on 4T1 cells
- T1 sequence (looked up): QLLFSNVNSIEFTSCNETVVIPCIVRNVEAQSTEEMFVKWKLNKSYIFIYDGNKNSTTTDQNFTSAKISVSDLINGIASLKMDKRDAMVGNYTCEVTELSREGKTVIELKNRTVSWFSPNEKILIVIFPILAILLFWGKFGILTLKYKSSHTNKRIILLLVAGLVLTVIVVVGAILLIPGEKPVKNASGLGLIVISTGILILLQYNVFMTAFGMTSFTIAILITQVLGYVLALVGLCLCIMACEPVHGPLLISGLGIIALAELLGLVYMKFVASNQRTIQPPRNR
- ASSAY NOTES: flow cytometry on RBCs, CHO supernatant 10 ng/ml
Write the number in ratio without appending the unit.

Some solved cases for reference:
Clone 6 (pVxK7b-037-hum06-LC / pVxK7b-037-hum06-HC) (antibody, human IgG1, kappa, V domains shown) VH: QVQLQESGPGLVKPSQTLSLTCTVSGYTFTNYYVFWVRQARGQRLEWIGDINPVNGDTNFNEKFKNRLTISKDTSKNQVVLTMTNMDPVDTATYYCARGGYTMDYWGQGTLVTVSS VL: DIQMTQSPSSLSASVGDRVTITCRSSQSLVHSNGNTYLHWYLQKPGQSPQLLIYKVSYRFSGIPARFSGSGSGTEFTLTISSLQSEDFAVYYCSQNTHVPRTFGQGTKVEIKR :: 1.2
chimeric antibody VxP037-01LC-Pro/VxP037-01HC-Pro (antibody, human IgG1, kappa, V domains shown, also called Chimera; VxP037-01LC/VxP037-01HC) VH: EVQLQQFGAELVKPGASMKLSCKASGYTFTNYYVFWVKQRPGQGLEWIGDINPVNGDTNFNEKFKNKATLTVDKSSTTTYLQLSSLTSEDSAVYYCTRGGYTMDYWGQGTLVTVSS VL: DVVMTQTPLSLSVSLGDQASISCRSSQSLVHSNGNTYLHWYLQKPGQSPKLLIYKVSYRFSGVPDRFSGSGSGTDFTLKISRVEAEDLGVYFCSQNTHVPRTFGQGTKVEIKR :: 1
Clone 18 (pVxK7b-037-hum18-LC / pVxK7b-037-hum18-HC) (antibody, human IgG1, kappa, V domains shown) VH: EVQLVQSGAEVKKPGESLRISCKGSGYTFTNYYVFWIRQSPSRGLEWLGDINPVNGDTNFNEKFKNRVTITADKSTSTAYMELSSLRSEDTAVYYCARGGYTMDYWGQGTLVTVSS VL: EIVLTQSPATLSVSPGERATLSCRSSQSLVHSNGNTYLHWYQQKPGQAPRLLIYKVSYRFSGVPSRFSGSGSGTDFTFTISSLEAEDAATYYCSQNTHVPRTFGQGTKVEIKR :: 1.3
Clone 7 (pVxK7b-037-hum07-LC / pVxK7b-037-hum07-HC) (antibody, human IgG1, kappa, V domains shown) VH: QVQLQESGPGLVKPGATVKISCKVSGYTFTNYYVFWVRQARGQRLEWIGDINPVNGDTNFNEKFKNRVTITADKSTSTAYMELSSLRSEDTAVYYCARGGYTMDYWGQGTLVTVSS VL: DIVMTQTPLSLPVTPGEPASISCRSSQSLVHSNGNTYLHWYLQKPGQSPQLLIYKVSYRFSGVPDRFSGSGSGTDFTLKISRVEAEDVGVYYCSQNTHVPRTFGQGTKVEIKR :: 0.4

# next binder below
Data request, read-out mean fluorescence relative to chimeric antibody, for Clone 10 (pVxK7b-037-hum10-LC / pVxK7b-037-hum10-HC) (antibody, human IgG1, kappa, V domains shown) VH: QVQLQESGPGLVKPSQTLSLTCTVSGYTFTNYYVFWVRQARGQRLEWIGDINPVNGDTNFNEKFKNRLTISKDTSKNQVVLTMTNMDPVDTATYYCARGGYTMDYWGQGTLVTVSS VL: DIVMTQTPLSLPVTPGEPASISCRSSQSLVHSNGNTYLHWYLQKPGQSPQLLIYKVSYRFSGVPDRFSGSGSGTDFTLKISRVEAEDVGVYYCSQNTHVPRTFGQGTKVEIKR 1.2
